Tested on: Plasmodium falciparum
Experiment: Antiplasmodial activity against sorbitol synchronized ring stage Plasmodium falciparum 3D7 assessed as reduction in parasitemia incubated for 72 hrs by Syto-61 staining dye based flow cytometry analysis
Format: functional
Settings: read-out: LD50 (the source's name)
assay metric: LC50 (nM)
// return numeric value only (unit: nM, not printed)

Which measured LC50 value corresponds to CC(=O)N1CCC[C@H]1C(=O)N[C@@H](C)C(=O)N[C@@H](CC(C)C)B(O)O ? 160

---

In this section we review reported selectivity ratio values for a set of compounds.
Assay: Selectivity index, ratio of LD50 for cytotoxicity against human HepG2 cells to LD50 for antiplasmodial activity against Plasmodium falciparum 3D7 sorbitol-treated ring stage
Type: toxicity, cell-based
Conditions: read-out: Selectivity Index
The answer should be written as a number, with no unit following it.

Some entries whose results are on file:
CC(C)C[C@H](NC(=O)[C@H](Cc1ccccc1)NC(=O)Cc1ccc(O)cc1)B(O)O; 0.7
Cc1ccc(S(=O)(=O)N[C@@H](CC(=O)NCC(C)(C)C)C(=O)N[C@@H](Cc2ccccc2)C(=O)N[C@@H](CC(C)C)B(O)O)cc1; 4
CC(=O)N1CCC[C@H]1C(=O)N[C@@H](C)C(=O)N[C@@H](CC(C)C)B(O)O; 15

# ---- query compound ----
Which selectivity ratio value is on record for CC(=O)N1CCC[C@@H]1C(=O)N[C@@H](C)C(=O)N[C@@H](Cc1ccccc1)B(O)O ? 56
